- TEST TARGET: Recombinant human c-Met protein (Homo sapiens)
- Construct: purchased Invitrogen
- Sequence (P08581 25-1390): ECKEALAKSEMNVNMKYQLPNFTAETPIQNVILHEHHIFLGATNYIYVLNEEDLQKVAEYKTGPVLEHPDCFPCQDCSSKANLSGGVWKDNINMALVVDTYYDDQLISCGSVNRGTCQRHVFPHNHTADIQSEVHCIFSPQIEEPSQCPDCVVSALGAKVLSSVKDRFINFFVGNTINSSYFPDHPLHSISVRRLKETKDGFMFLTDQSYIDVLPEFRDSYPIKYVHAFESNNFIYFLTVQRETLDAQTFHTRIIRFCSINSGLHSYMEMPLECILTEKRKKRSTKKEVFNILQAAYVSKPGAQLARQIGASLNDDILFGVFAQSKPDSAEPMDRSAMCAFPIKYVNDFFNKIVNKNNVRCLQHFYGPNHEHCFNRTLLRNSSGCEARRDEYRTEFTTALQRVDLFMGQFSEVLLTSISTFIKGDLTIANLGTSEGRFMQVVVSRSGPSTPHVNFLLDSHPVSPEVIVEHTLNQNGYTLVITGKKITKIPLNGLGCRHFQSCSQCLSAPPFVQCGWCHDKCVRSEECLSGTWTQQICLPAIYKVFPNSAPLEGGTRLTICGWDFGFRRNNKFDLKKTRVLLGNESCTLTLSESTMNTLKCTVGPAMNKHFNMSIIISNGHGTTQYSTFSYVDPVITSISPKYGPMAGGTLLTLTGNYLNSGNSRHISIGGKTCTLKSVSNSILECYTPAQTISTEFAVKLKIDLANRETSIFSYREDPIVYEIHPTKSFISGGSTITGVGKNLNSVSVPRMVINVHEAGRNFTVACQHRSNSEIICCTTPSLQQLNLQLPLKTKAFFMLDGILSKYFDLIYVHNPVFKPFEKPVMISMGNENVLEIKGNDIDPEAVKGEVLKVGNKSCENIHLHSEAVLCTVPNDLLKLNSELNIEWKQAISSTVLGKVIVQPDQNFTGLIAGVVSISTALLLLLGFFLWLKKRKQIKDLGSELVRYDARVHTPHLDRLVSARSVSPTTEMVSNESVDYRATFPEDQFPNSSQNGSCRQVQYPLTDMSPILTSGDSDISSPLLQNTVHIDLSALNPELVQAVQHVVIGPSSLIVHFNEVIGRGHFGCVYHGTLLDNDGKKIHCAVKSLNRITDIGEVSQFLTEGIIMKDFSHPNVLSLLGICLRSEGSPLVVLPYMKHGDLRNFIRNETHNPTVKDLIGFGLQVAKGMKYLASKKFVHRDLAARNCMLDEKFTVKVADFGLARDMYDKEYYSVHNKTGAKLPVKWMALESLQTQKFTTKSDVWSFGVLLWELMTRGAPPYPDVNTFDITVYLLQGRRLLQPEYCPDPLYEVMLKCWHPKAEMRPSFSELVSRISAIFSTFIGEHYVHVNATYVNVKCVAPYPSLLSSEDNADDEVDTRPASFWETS
- PROCEDURE DETAILS: c-Met receptor tyrosine kinase activity assay (NADH read-out)
- Format: biochemical
- MEASUREMENT SETUP: c-Met 30 nM, ATP 30 μM, 100 min at 32° C.
PROPERTY LABEL: IC50 (nM)

# MOLECULE, ENDPOINT UNIT, TEST RESULT
records = [
    ("CCC1=C(C#N)C(c2ccc3[nH]nc(C)c3c2)C(C#N)=C(C(F)F)N1 (stereo not drawn) [Example 13]", "nM", 9),
    ("Cc1n[nH]c2cc(F)c(C3C(C#N)=C(CCC(F)(F)F)NC(C(F)(F)F)=C3C#N)cc12 (racemic) [Example 7]", "nM", 52),
    ("N#CC1=C(CCC(F)(F)F)NC(C(F)(F)F)=C(C#N)C1c1ccc2[nH]ncc2c1 (stereo not drawn) [Example 16]", "nM", 29),
    ("Cc1n[nH]c2ccc(C3C(C#N)=C(CCC(F)(F)F)NC(C(F)F)=C3C#N)cc12 (stereo not drawn) [Example 14]", "nM", 17),
]

A = Cc1n[nH]c2ccc(C3C(C#N)=C(CCC(C)C)NC(C(F)(F)F)=C3C#N)cc12 (racemic) [Example 1]
B = Cc1n[nH]c2cc(F)c(C3C(C#N)=C(CCC(F)(F)F)NC(C(F)F)=C3C#N)cc12 (racemic) [Example 10]
Kindly compare A with B and tell me which has the lower IC50 figure. Label of pick, please.
A
